Task for the reader: assign each of the following compounds its reported log10 IC50.
- target under test: recombinant human IL-17AA (Homo sapiens)
- Sequence (Q16552 24-155): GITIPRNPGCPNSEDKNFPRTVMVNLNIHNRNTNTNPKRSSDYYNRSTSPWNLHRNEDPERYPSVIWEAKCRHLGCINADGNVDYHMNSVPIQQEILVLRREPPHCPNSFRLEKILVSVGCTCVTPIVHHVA
- assay explanation: IL-6 release from NHDF cells, IL-17AA plus TNF-α stimulation
- Format: cell-based
- particulars: NHDF cells, IL-17AA 30 pM plus TNF-α 6 pM, 24 hours, IL-6 by ELISA; read-out: IL17AA + TNF IC50 IL-6
- Method: IL-6 Release from NHDF Cells (Normal Human Dermal Fibroblasts) NHDF cells isolated from normal adult mesoderm, connective tissues were cultured in fibroblast growth medium containing 2% supplement. […] Diluted compounds were pre-incubated with recombinant human IL-17AA or IL-17AF plus human TNF-α for 30 minutes at room temperature on a shaker. […] The supernatants were collected to quantify IL-6 by ELISA according to the manufacturers instructions. […]
Would you kindly interpret these values as log10 of IC50 expressed in nM?

Cc1nscc1C(=O)N[C@H](C(=O)Nc1ccc(-c2c(Cl)cc[n+]([O-])c2C)c(F)c1)C1CCCCC1 [Example 17]	1.26
Cc1nocc1C(=O)N[C@H](C(=O)Nc1ccc(-c2c(Cl)cc[n+]([O-])c2C)c(F)c1)C1CCC(F)(F)CC1 [Example 106]	1.26
COCCn1nccc1C(=O)N[C@H](C(=O)Nc1ccc(-c2c(Cl)cc[n+]([O-])c2C)c(F)c1)C1CCCCC1 [Example 15]	1.00
Cc1c(-c2ccc(NC(=O)[C@@H](NC(=O)c3ccnn3C)C3CCCCC3)c(F)c2F)c(Cl)cc[n+]1[O-] [Example 62]	0.85

// for each compound in input: emit log10 IC50
1. CCc1nocc1C(=O)NC(C(=O)Nc1ccc(-c2c(Cl)cc[n+]([O-])c2C)cc1)C1CCC(C(F)(F)F)CC1 (centres unmarked) [Example 4]
2. CCn1nccc1C(=O)N[C@H](C(=O)Nc1ccc(-c2c(C(F)(F)F)cc[n+]([O-])c2C)cc1)C1CCC(F)(F)CC1 [Example 11]

[1.08, 1.30]

The following compounds each have a reported value; give each one's log10 IC50.
1. Cc1cc[n+]([O-])c(Cl)c1-c1ccc(NC(=O)[C@@H](NC(=O)c2ccnn2C)C2CCCCC2)cc1 [Example 89]
2. Cc1cc[n+]([O-])c(C)c1-c1ccc(NC(=O)[C@@H](NC(=O)c2ccnn2C(C)C)C(c2ccccc2)c2ccccc2)cc1 [Example 68]
3. Cc1nocc1C(=O)N[C@H](C(=O)Nc1ccc(-c2c(C(F)(F)F)cc[n+]([O-])c2C)cc1)[C@H]1CCCC(F)(F)C1 [Example 9]
4. Cc1cc[n+]([O-])c(C)c1-c1ccc(NC(=O)[C@@H](NC(=O)c2ccnn2C)C2CCCCC2)cc1 [Example 39]

1. 1.92
2. 1.20
3. 0.60
4. 1.30

Each compound below has a reported value. Please supply its log10 IC50.
1. Cc1cc[n+]([O-])c(C)c1-c1ccc(NC(=O)[C@@H](NC(=O)c2ccc3n2CCN(C)C3)C2CCCCCC2)cc1 [Example 120]
2. Cc1cc[n+]([O-])c(C)c1-c1ccc(NC(=O)[C@@H](NC(=O)c2ccnn2C)C2CCCC2)cc1 [Example 36]
3. Cc1cc[n+]([O-])c(C)c1-c1ccc(NC(=O)[C@H](Cc2ccccc2F)NC(=O)c2conc2C)cc1 [Example 72]
4. Cc1c[n+]([O-])cc(C)c1-c1ccc(NC(=O)[C@@H](NC(=O)c2ccc3n2CCN(C)C3)C2CCCCCC2)cc1 [Example 117]

1: 0.60; 2: 1.58; 3: 3.53; 4: 2.08

All figures here come from patent US12600728B2.
